target under test: Cathepsin S (Homo sapiens)
Sequence (P25774 115-331, species assumed): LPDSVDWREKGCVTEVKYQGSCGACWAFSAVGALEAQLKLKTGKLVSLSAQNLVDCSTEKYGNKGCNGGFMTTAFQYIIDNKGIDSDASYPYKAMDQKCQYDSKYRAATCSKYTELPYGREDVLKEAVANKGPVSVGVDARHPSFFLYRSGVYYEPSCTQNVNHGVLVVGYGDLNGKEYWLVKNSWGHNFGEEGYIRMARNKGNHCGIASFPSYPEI
assay overview: Cathepsin S inhibition assay (fluorogenic peptide substrate)
Type: biochemical
conditions used: Table II, compounds of Formula I; read-out: Ki Cat. S
Exercise: state measured Ki for each of the compounds provided.

COc1ccc(NCCNC(=O)[C@H](Cc2cccc(C(F)(F)F)c2)NC(=O)c2cccc(C)c2)cc1 :: < 0.1 µM
COc1ccc(NCCNC(=O)[C@H](CC2CCCCC2)NC(=O)c2cc(C(F)(F)F)ccc2F)cc1 :: < 0.1 µM
COc1ccc(NCCNC(=O)[C@H](CC2CCCCC2)NC(=O)c2cnn(-c3ccc(Cl)cc3)c2C)cc1 :: < 0.1 µM
COc1ccc(CC(=O)NC(CC2CCCCC2)C(=O)NCCNc2ccc(OC(F)(F)F)cc2)cc1 (stereo not drawn) :: < 0.1 µM
COc1ccc(NCCNC(=O)[C@H](CC2CCCCC2)NC(=O)c2cccc(C)c2Cl)cc1 :: < 0.1 µM

Batch lookup, Ki per entry.
1. COc1ccc(NCCNC(=O)[C@H](Cc2ccccc2)NC(=O)NCc2ccc(F)cc2)cc1
2. O=C(Cc1c[nH]c2ccccc12)NC(CC1CCCCC1)C(=O)NCCNc1ccc(F)cc1 (stereo not drawn)

Result:
1: < 10 µM; 2: < 0.1 µM

All figures here come from patent US7109243B2.
